molecular target: Cannabinoid receptor 1 (Homo sapiens) (UniProt P21554); details: HEK293
Sequence (P21554 whole entry): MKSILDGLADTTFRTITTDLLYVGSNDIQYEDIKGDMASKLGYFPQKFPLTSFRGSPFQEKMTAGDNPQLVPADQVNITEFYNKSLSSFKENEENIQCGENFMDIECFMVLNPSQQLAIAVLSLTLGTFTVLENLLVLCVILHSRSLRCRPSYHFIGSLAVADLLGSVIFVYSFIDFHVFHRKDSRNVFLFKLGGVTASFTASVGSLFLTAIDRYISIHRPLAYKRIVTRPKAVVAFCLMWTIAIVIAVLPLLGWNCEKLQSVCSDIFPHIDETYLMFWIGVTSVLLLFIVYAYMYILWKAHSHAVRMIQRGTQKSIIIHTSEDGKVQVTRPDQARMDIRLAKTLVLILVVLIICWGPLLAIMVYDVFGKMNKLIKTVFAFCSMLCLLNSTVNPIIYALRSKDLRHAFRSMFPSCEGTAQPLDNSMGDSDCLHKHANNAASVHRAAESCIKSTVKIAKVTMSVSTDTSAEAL
Description: Displacement of [3H]-CP-55940 from human recombinant CB1 receptor expressed in HEK293 cells after 90 mins by Competition binding assay
Observation type: Kieq

Solved entries (count: 2):
[[record]]
smiles_code = "CCCCCn1cc(C(=O)NC23CC4CC(CC(C4)C2)C3)c(=O)c2cc(-c3ccccc3)ccc21"
system_tested = "Cannabinoid receptor 1 (Homo sapiens) (UniProt P21554)"
observation_type = "Kieq"
result_value = "> 10 µM"

[[record]]
smiles_code = "COCCOCn1cc(C(=O)NC23CC4CC(CC(C4)C2)C3)c(=O)c2cc(C(C)C)ccc21"
system_tested = "Cannabinoid receptor 1 (Homo sapiens) (UniProt P21554)"
observation_type = "Kieq"
result_value = "> 10 µM"


Fill in: Cannabinoid receptor 1 (Homo sapiens) (UniProt P21554) Kieq for CCCCCn1c(=O)c(C(=O)NC23CC4CC(CC(C4)C2)C3)c(O)c2cc(C(C)C)c(F)cc21 = > 10 µM
